# Tested on: CAKI-1
# assay_overview: NCI tumour cell line growth inhibition, 48 h
Active and inactive are the calls of the source. No stated cut-off is given here; in the data, active = GI50 up to about 1.1 µM and inactive = higher.
Mark one answer only. Choices: 1.0 for active, 0.0 for inactive

Example entries and their recorded answers appear below.
INSERT INTO assay_data (compound, study_system, discrete_label) VALUES
  ('O=C1C=Cc2c1csc2Br', 'CAKI-1', 0.0),
  ('COc1cc(C=O)c(-c2c(C=O)ccc3c2OCO3)c(OC)c1OC', 'CAKI-1', 0.0),
  ('CN[C@@H](Cc1cccc2ccccc12)C(=O)N[C@@H](CC(C)C)B(O)O', 'CAKI-1', 1.0),
  ('CC(=O)OC1CC2(O)C(CCC3(C)C(c4ccc(=O)oc4)CCC32O)C2(C)C1=CC(O)C1OC12 (stereo unspecified)', 'CAKI-1', 1.0),
  ('COc1cccc2c1CCc1sc(CN3CCN(C)CC3)nc1-2', 'CAKI-1', 0.0),
  ('Cc1ccc(S(=O)(=O)N(CC(=O)O)c2ccccc2)cc1', 'CAKI-1', 0.0);

Lookup: Hello, I am checking results. What call was entered for `CC(=O)Nc1ccc(/C=C/C(=O)c2sc(C(N)=S)nc2C)cc1` ?
Found: 0.0

====

# Test system: SK-OV-3
# assay_overview: NCI tumour cell line growth inhibition, 48 h
The source made the active and inactive calls. Rule as the data show it: active = GI50 up to about 1.1 µM and inactive = higher.
This section presents molecules with their documented GI50 values.

Record excerpt, results attached:
INSERT INTO results (molecule, study_system, readout_value) VALUES
  ('CC(C)N1CC2CN(Cc3ccccc3)CC(C1)C2=O', 'SK-OV-3', '> 100 µM (inactive)'),
  ('CC(C)NC(=O)CN1CCN(C2=C(Cl)C(=O)c3c(O)ccc(O)c3C2=O)CC1', 'SK-OV-3', '10.1 µM (inactive)'),
  ('C[C@@H]1CCC2[C@@H](C)[C@@H](O[C@H]3O[C@@H]4O[C@@]5(C)CCC6[C@H](C)CCC([C@H]3C)[C@]64OO5)O[C@@H]3O[C@@]4(C)CCC1[C@@]23OO4 (stereo not given in full)', 'SK-OV-3', '> 25 µM (inactive)');

Lookup: Give GI50 for the following molecule: O=C(NCc1cccnc1)C1COc2cc(-c3cc(=O)c4ccccc4o3)ccc2O1 (stereo not given)
Found: > 100 µM (inactive)

Lookup: Give GI50 for the following molecule: COC1(C)CCC(OS(C)(=O)=O)CO1 (stereo not given)
Found: > 100 µM (inactive)

====

# Tested on: NCI-H522
# assay_overview: NCI tumour cell line growth inhibition, 48 h
Active and inactive are the calls of the source. No stated cut-off is given here; in the data, active = GI50 up to about 1.1 µM and inactive = higher.
measured_metric: GI50

Record excerpt, results attached:
INSERT INTO measurements (molecule, readout_value) VALUES
  ('Cc1cc(O)c(C=O)c2c1C(=O)Oc1c(CO)c(O)c3c(c1O2)C(O)OC3=O (stereo unspecified)', '42.3 µM (inactive)'),
  ('CCOC(=O)N1CC2(C(=O)OC)C=CC1C(C(=O)OC)C2 (stereo unspecified)', '> 100 µM (inactive)'),
  ('N#Cc1c(-c2ccco2)cc(-c2ccc(N)cc2)[nH]c1=O', '> 100 µM (inactive)'),
  ('CC(=O)c1c2c(c3ccccc3c1O)O[C@@H]1OCC[C@H]21', '> 100 µM (inactive)');

Lookup: Give GI50 for the following molecule: CC1(CO)OC(n2cc(C(=O)NC(=O)OCc3ccccc3)c(=O)[nH]c2=O)CC1O (stereo unspecified)
Found: > 100 µM (inactive)

Lookup: Give GI50 for the following molecule: `COC1(OC)CCCc2c1no[n+]2[O-]`
Found: > 100 µM (inactive)

Lookup: Give GI50 for the following molecule: Cc1cc(C23OC4COC(C)(C)OC4C2OC(C)(C)O3)nc2ccccc12 (stereo unspecified)
Found: > 100 µM (inactive)
